Recorded values, source BigSolDB 2.1.

recorded-conditions: in methanol, 293.15 K
property-measured: solubility (mole fraction)
Just the number, please.

Memo: CC(=O)c1c(C)c([N+](=O)[O-])c(C(C)(C)C)c([N+](=O)[O-])c1C , reported solubility (mole fraction): 0.00225

---

recorded-conditions: in n-butanol, 303.15 K
property-measured: solubility (mole fraction)
Just the number, please.

Memo: CC(=O)c1c(C)c([N+](=O)[O-])c(C(C)(C)C)c([N+](=O)[O-])c1C , reported solubility (mole fraction): 0.00812

---

recorded-conditions: in ethyl acetate, 273.15 K
property-measured: solubility (mole fraction)
Just the number, please.

Memo: CC(=O)c1c(C)c([N+](=O)[O-])c(C(C)(C)C)c([N+](=O)[O-])c1C , reported solubility (mole fraction): 0.055

---

recorded-conditions: in methanol, 313.15 K
property-measured: solubility (mole fraction)
Just the number, please.

Memo: CC(=O)c1c(C)c([N+](=O)[O-])c(C(C)(C)C)c([N+](=O)[O-])c1C , reported solubility (mole fraction): 0.00458

---

recorded-conditions: in n-butanol, 288.15 K
property-measured: solubility (mole fraction)
Just the number, please.

Memo: CC(=O)c1c(C)c([N+](=O)[O-])c(C(C)(C)C)c([N+](=O)[O-])c1C , reported solubility (mole fraction): 0.00449

---

recorded-conditions: in methanol, 288.15 K
property-measured: solubility (mole fraction)
Just the number, please.

Memo: CC(=O)c1c(C)c([N+](=O)[O-])c(C(C)(C)C)c([N+](=O)[O-])c1C , reported solubility (mole fraction): 0.00187

---

recorded-conditions: in ethanol, 288.15 K
property-measured: solubility (mole fraction)
Just the number, please.

Memo: CC(=O)c1c(C)c([N+](=O)[O-])c(C(C)(C)C)c([N+](=O)[O-])c1C , reported solubility (mole fraction): 0.00295

---

recorded-conditions: in ethanol, 278.15 K
property-measured: solubility (mole fraction)
Just the number, please.

Memo: CC(=O)c1c(C)c([N+](=O)[O-])c(C(C)(C)C)c([N+](=O)[O-])c1C , reported solubility (mole fraction): 0.00198

---

recorded-conditions: in ethanol, 283.15 K
property-measured: solubility (mole fraction)

Memo: CC(=O)c1c(C)c([N+](=O)[O-])c(C(C)(C)C)c([N+](=O)[O-])c1C , reported solubility (mole fraction): 0.00241

---

recorded-conditions: in ethanol, 273.15 K
property-measured: solubility (mole fraction)

Memo: CC(=O)c1c(C)c([N+](=O)[O-])c(C(C)(C)C)c([N+](=O)[O-])c1C , reported solubility (mole fraction): 0.0016

---

recorded-conditions: in ethanol, 303.15 K
property-measured: solubility (mole fraction)
Just the number, please.

Memo: CC(=O)c1c(C)c([N+](=O)[O-])c(C(C)(C)C)c([N+](=O)[O-])c1C , reported solubility (mole fraction): 0.00512

---

recorded-conditions: in methanol, 308.15 K
property-measured: solubility (mole fraction)
Just the number, please.

Memo: CC(=O)c1c(C)c([N+](=O)[O-])c(C(C)(C)C)c([N+](=O)[O-])c1C , reported solubility (mole fraction): 0.00387

---

recorded-conditions: in ethyl acetate, 293.15 K
property-measured: solubility (mole fraction)

Memo: CC(=O)c1c(C)c([N+](=O)[O-])c(C(C)(C)C)c([N+](=O)[O-])c1C , reported solubility (mole fraction): 0.0954
